# STUDY TARGET: recombinant human soluble γ2 δ3TCR-FC (wild type) (human) (UniProt B7Z8K6)
# PROTOCOL SUMMARY: Octet, γ2δ3TCR-hFc captured on anti-human Fc biosensor; row antibody δ3-23 taken as first (saturating), column antibody as second; 5 µg/mL each; also: unit not given here
Items are presented alongside their recorded paired-competition value (Octet signal of the second antibody per paragraph 256).
Would you mind answering with just the numeric figure?

Solved entries:
BINDER: δ3-31 (antibody, V domains shown) VH: DVQLQESGPDLVKPSQSLSLTCTVTGYSITSGYGWHWIRQFPGNKLEWMGYISFSGSNKYNPSLKSRISITRDTSKNQFFLQLNSVTTEDTATYYCANLDYWGQGTTLTVSS VL: DIQMTQRTSSLSASLGDRVTISCSASQDITNYLHWFQQKPDGTVKLLIYYTSTLHSGVPSRFSGSGSGTDYSLTISNLEPEDIATYYCQQYSKLPYTFGGGTKLEITR
RECORDED NUMBER: 0.4
//
BINDER: δ3-58 (antibody, V domains shown) VH: EVKLVESGGGLVQPGGSLKLSCAASGFTFSSYAMSWVRQTPEKRLEWVAYIRDGGGGTYYPDTVEGRFTISRDNAKNTLYLQMSSLKSEDTAMYYCARHPPMNDWFLYWGQGTLVTVSA VL: DIQMTQSPASLSVSVGETVTITCRASENIYSHLAWYQQKQGKSPQLLVYAATNLADGVPSRFSGSGSGTQYSLKINSLQSEDFGSYYCQHFWGTPYTFGGGTKLEIKR
RECORDED NUMBER: 0.03
//
BINDER: δ3-08 (antibody, V domains shown) VH: EEKLEESGGGLVQPGGSMKLSCVASGFIFSIYWMNWVRQSPEKGLEWVGQIRLKSDNYATHYAESVKGRFTISRDDSKSSVYLQMNNLRAEDTGIYYCMYYGSSYERFAYWGQGTLVTVSA VL: DIQMIQSPASLSVSVGETVTITCRASENIYSNLAWYQQKQGKSPQLLVYVATKLADGVPSRFSGSGSGTQYSLKINSLQSEDFGSYYCQHFWGTPPWTFGGGTKLEIK
RECORDED NUMBER: 0.04

Data request: Any idea what paired-competition value (Octet signal of the second antibody per paragraph 256) was measured for δ3-42 (antibody, V domains shown) VH: DVQLQESGPDLVKPSQSLSLTCTVTGYSITSGYNWHWIRQFPGNKLEWMGYIHYSGNTDYNPSLRSRISITRDTSKNQFFLHLNSVPTEDTATYYCARSGITTDWYFDVWGAGTTVTVSS VL: QIVLSQSPAILSASPGEKVTMTCRASSSVNYMHWYQQKPGSSPKPWIYATSNLASGVPARFSGSGSGTSYSLTISKVEAEDAATYYCQQWSSHQPTFGAGTKLELK ?
Data returned: 0.04
